Cited source for all entries: patent US20100022457A1

Assay: Dog pharmacokinetic study (intravenous and subcutaneous, 67 μg/kg)
Format: in vivo
Conditions: male, beagle, plasma, 67 ug/kg; dog, intravenous 67 μg/kg, Tables 6B/6C, vehicle not given; read-out: CLp
Where a SMILES comes first, the peptide text is derived from it. [ ]: non-standard residue; d: D form. The star is where a group is joined. ξ: configuration not given here. Ala(6-(2-MePh)pyridin-3-yl) = Cc1ccccc1-c1ccc(C[C@H](N)C(=O)O)cn1; Bip(2'-Et-4'-OMe) = CCc1cc(OC)ccc1-c1ccc(C[C@H](N)C(=O)O)cc1; Lactoyl(3-(imidazol-4-yl)) = O=C([C@@H](O)Cc1c[nH]cn1)*; ξαMePhe(2-F) = CC(N)(Cc1ccccc1F)C(=O)O; ξαMeP = CC1(C(=O)O)CCCN1
propertyMeasured: clearance (mL/min/kg)
One number for each entry, in mL/min/kg.

IN: Data request, read-out clearance, for CCc1cc(OC)ccc1-c1ccc(C[C@H](NC(=O)[C@H](CC(=O)O)NC(=O)[C@H](Cc2c[nH]cn2)NC(=O)[C@@H](NC(=O)C(C)(Cc2ccccc2F)NC(=O)[C@@H](NC(=O)CNC(=O)[C@H](CCC(=O)O)NC(=O)C2(C)CCCN2C(=O)[C@@H](O)Cc2c[nH]cn2)[C@@H](C)O)[C@@H](C)O)C(=O)N[C@@H](Cc2ccc(-c3ccccc3C)nc2)C(N)=O)cc1 (stereo partly shown) [SEQ ID NO: 151] ({Lactoyl(3-(imidazol-4-yl))}-[ξαMeP]EGT[ξαMePhe(2-F)]THD[Bip(2'-Et-4'-OMe)][Ala(6-(2-MePh)pyridin-3-yl)]-NH2)
OUT: 0.49

====

Experiment: Exposure during ipGTT in ob/ob mice
Type: in vivo, mouse
Conditions: sc
Where a SMILES comes first, the peptide text is derived from it. [ ]: non-standard residue; d: D form. The star is where a group is joined. ξ: configuration not given here. Ala(6-(2-MePh)pyridin-3-yl) = Cc1ccccc1-c1ccc(C[C@H](N)C(=O)O)cn1; Phe(4-(2-Et-4-HO-Ph)) = CCc1cc(O)ccc1-c1ccc(C[C@H](N)C(=O)O)cc1; ξαMePhe(2-F) = CC(N)(Cc1ccccc1F)C(=O)O; ξαMeP = CC1(C(=O)O)CCCN1; Moc = COC(=O)*
propertyMeasured: Exposure/dose during ipGTT in ob/ob mice (nM*h/nmol/kg)
One number for each entry, in nM*h/nmol/kg.

IN: Data request, read-out Exposure/dose during ipGTT in ob/ob mice, for CCc1cc(O)ccc1-c1ccc(C[C@H](NC(=O)[C@H](CC(=O)O)NC(=O)[C@H](CO)NC(=O)[C@@H](NC(=O)C(C)(Cc2ccccc2F)NC(=O)[C@@H](NC(=O)CNC(=O)[C@H](CCC(=O)O)NC(=O)C2(C)CCCN2C(=O)[C@H](Cc2c[nH]cn2)NC(=O)OC)[C@@H](C)O)[C@@H](C)O)C(=O)N[C@@H](Cc2ccc(-c3ccccc3C)nc2)C(N)=O)cc1 (stereo partly shown) [SEQ ID NO: 158] (Moc-H[ξαMeP]EGT[ξαMePhe(2-F)]TSD[Phe(4-(2-Et-4-HO-Ph))][Ala(6-(2-MePh)pyridin-3-yl)]-NH2)
OUT: 11

====

Test: Exposure during ipGTT in ob/ob mice
Format: in vivo, mouse
Conditions: sc
Where a SMILES comes first, the peptide text is derived from it. [ ]: non-standard residue; d: D form. ξ: configuration not given here. Bip(2'-Et-4'-OMe) = CCc1cc(OC)ccc1-c1ccc(C[C@H](N)C(=O)O)cc1; Bip(2'-Me) = Cc1ccccc1-c1ccc(C[C@H](N)C(=O)O)cc1; d(αMePhe(2-F)) = C[C@@](N)(Cc1ccccc1F)C(=O)O; Thr(3ξ) = CC(O)[C@H](N)C(=O)O; Aib = CC(C)(N)C(=O)O
propertyMeasured: Exposure/dose during ipGTT in ob/ob mice (nM*h/nmol/kg)
Give bare numbers, in nM*h/nmol/kg.

IN: Data request, read-out Exposure/dose during ipGTT in ob/ob mice, for CCc1cc(OC)ccc1-c1ccc(C[C@H](NC(=O)[C@H](CC(=O)O)NC(=O)[C@H](CO)NC(=O)[C@@H](NC(=O)[C@@](C)(Cc2ccccc2F)NC(=O)[C@@H](NC(=O)CNC(=O)[C@H](CCC(=O)O)NC(=O)C(C)(C)NC(=O)[C@@H](N)Cc2c[nH]cn2)C(C)O)C(C)O)C(=O)N[C@@H](Cc2ccc(-c3ccccc3C)cc2)C(N)=O)cc1 (stereo partly shown) [Compound I, reference compound] (H-H[Aib]EG[Thr(3ξ)][d(αMePhe(2-F))][Thr(3ξ)]SD[Bip(2'-Et-4'-OMe)][Bip(2'-Me)]-NH2)
OUT: 22

====

Test: Dog pharmacokinetic study (intravenous and subcutaneous, 67 μg/kg)
Type: in vivo
Conditions: male, beagle, plasma, 67 ug/kg; dog, intravenous 67 μg/kg, propylene glycol:phosphate buffer (50:50); read-out: VSS
Where a SMILES comes first, the peptide text is derived from it. [ ]: non-standard residue; d: D form. Ala(6-(2-MePh)pyridin-3-yl) = Cc1ccccc1-c1ccc(C[C@H](N)C(=O)O)cn1; Bip(2'-Et-4'-OMe) = CCc1cc(OC)ccc1-c1ccc(C[C@H](N)C(=O)O)cc1; αMePhe(2-F) = C[C@](N)(Cc1ccccc1F)C(=O)O; Aib = CC(C)(N)C(=O)O
propertyMeasured: Vd (L/kg)
Give bare numbers, in L/kg.

IN: Data request, read-out Vd, for CCc1cc(OC)ccc1-c1ccc(C[C@H](NC(=O)[C@H](CC(=O)O)NC(=O)[C@H](CO)NC(=O)[C@@H](NC(=O)[C@](C)(Cc2ccccc2F)NC(=O)[C@@H](NC(=O)CNC(=O)[C@H](CCC(=O)O)NC(=O)C(C)(C)NC(=O)[C@@H](N)Cc2c[nH]cn2)[C@@H](C)O)[C@@H](C)O)C(=O)N[C@@H](Cc2ccc(-c3ccccc3C)nc2)C(N)=O)cc1 [SEQ ID NO: 9] (H-H[Aib]EGT[αMePhe(2-F)]TSD[Bip(2'-Et-4'-OMe)][Ala(6-(2-MePh)pyridin-3-yl)]-NH2)
OUT: 0.1

====

Assay: Dog pharmacokinetic study (intravenous and subcutaneous, 67 μg/kg)
Assay type: in vivo
Details: male, beagle, plasma, sc, 67 ug/kg; dog, subcutaneous 67 μg/kg, propylene glycol:phosphate buffer (50:50)
Where a SMILES comes first, the peptide text is derived from it. [ ]: non-standard residue; d: D form. Ala(6-(2-MePh)pyridin-3-yl) = Cc1ccccc1-c1ccc(C[C@H](N)C(=O)O)cn1; Bip(2'-Et-4'-OMe) = CCc1cc(OC)ccc1-c1ccc(C[C@H](N)C(=O)O)cc1; αMePhe(2-F) = C[C@](N)(Cc1ccccc1F)C(=O)O; Aib = CC(C)(N)C(=O)O
propertyMeasured: MRT (h)
One number for each entry, in h.

IN: Data request, read-out MRT, for CCc1cc(OC)ccc1-c1ccc(C[C@H](NC(=O)[C@H](CC(=O)O)NC(=O)[C@H](CO)NC(=O)[C@@H](NC(=O)[C@](C)(Cc2ccccc2F)NC(=O)[C@@H](NC(=O)CNC(=O)[C@H](CCC(=O)O)NC(=O)C(C)(C)NC(=O)[C@@H](N)Cc2c[nH]cn2)[C@@H](C)O)[C@@H](C)O)C(=O)N[C@@H](Cc2ccc(-c3ccccc3C)nc2)C(N)=O)cc1 [SEQ ID NO: 9] (H-H[Aib]EGT[αMePhe(2-F)]TSD[Bip(2'-Et-4'-OMe)][Ala(6-(2-MePh)pyridin-3-yl)]-NH2)
OUT: 12.5

====

Experiment: Solubility of the compound of SEQ ID NO:9 in the presence of Zn(II) / Zn adduct
Type: physicochemical
Details: pH 6.8, 50 mM phosphate buffer; read-out: concentration of saturated solution (solubility)
Where a SMILES comes first, the peptide text is derived from it. [ ]: non-standard residue; d: D form. Ala(6-(2-MePh)pyridin-3-yl) = Cc1ccccc1-c1ccc(C[C@H](N)C(=O)O)cn1; Bip(2'-Et-4'-OMe) = CCc1cc(OC)ccc1-c1ccc(C[C@H](N)C(=O)O)cc1; αMePhe(2-F) = C[C@](N)(Cc1ccccc1F)C(=O)O; Aib = CC(C)(N)C(=O)O
propertyMeasured: solubility at 12 h (µg/mL)
Answers are plain numbers, in µg/mL.

IN: Data request, read-out solubility at 12 h, for CCc1cc(OC)ccc1-c1ccc(C[C@H](NC(=O)[C@H](CC(=O)O)NC(=O)[C@H](CO)NC(=O)[C@@H](NC(=O)[C@](C)(Cc2ccccc2F)NC(=O)[C@@H](NC(=O)CNC(=O)[C@H](CCC(=O)O)NC(=O)C(C)(C)NC(=O)[C@@H](N)Cc2c[nH]cn2)[C@@H](C)O)[C@@H](C)O)C(=O)N[C@@H](Cc2ccc(-c3ccccc3C)nc2)C(N)=O)cc1 [SEQ ID NO: 9] (H-H[Aib]EGT[αMePhe(2-F)]TSD[Bip(2'-Et-4'-OMe)][Ala(6-(2-MePh)pyridin-3-yl)]-NH2)
OUT: 17
